assay_system: T1, human GIP receptor (human, UniProt P48546 22-466)
T1 sequence (looked up): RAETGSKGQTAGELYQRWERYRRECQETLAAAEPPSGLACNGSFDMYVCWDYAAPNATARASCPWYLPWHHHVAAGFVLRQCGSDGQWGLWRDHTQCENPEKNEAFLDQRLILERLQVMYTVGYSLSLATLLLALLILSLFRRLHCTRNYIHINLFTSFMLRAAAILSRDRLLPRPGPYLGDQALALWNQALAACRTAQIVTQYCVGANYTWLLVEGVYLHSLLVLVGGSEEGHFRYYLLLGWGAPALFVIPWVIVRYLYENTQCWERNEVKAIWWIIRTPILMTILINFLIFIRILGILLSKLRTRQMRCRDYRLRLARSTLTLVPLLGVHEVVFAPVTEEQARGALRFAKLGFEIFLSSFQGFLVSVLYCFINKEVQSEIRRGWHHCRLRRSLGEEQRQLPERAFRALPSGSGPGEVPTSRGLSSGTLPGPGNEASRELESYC
method: cell-based or functional assay
Bridges are numbered along the chain shown (N, C = ends). Where no end group is shown, it is not given here. [ ]: non-standard residue; d: D form. The star is where a group is joined. Acetyl(2-(4-imidazolyl)) = O=C(Cc1c[nH]cn1)*; Aib = CC(C)(N)C(=O)O
readout_name: In vitro activity compared with native peptide (%) vs. GIP

// query In vitro activity compared with native peptide (%) vs. GIP value for entry H[Aib]QGTFTSDYSKYLCEKRQKEFVQWLLNGGPSSGAPPPSG (bridge 16-20) [Triple agonist of SEQ ID NO: 36]
0.2%

# repeat for H[Aib]QGTFTSDYSKYLDECRQKEFVQWLLNGGPSSGAPPPSG (bridge 16-20) [Triple agonist of SEQ ID NO: 37]
2.2%

---
Requested read-out: In vitro activity compared with native peptide (%) vs. GIP. Entry: Y[Aib]QGTFTSDYSKYLDECRAKEFVQWLKNGGPSSGAPPPS (bridge 16-20) [Triple agonist of SEQ ID NO: 24]
< 0.1%

Queued: {Acetyl(2-(4-imidazolyl))}-[Aib]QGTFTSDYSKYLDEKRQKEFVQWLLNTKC (bridge 15-19) [Triple agonist of SEQ ID NO: 88]
< 0.1%

Field entry: H[Aib]QGTFTSDVSSYLDGQAQKEFIAWLVKGC [Triple agonist of SEQ ID NO: 2]
< 0.1%

Proceed to H[Aib]QGTFTSDVSKYLDGQAAQEFVAWLLAGGGPSSGAPPPSC [Triple agonist of SEQ ID NO: 10]
< 0.1%
